# protocol_details: Toxicity liver stage against HepG2, at 10uM
# Assay type: cell-based
# Set-up: test concentration 10 uM, cell line HepG2-A16-CD81EGFP
# measurement_parameters: human, HepG2-A16-CD81EGFP cells; read-out: INHIBITION
measurement_type: cytotoxicity at 10 µM (%)
Just the number please, in %, no unit attached.

compound | cytotoxicity at 10 µM (%)
COc1c(Br)cc(Cl)cc1NCc1c(C)noc1C | 12.8
Cc1noc(C)c1CN1CCO[C@H]2CNC[C@H]21 | 5.4
CC(C)c1cc(COCCCC(=O)O)no1 | 11.1

Fill in reported cytotoxicity at 10 µM for this entry: CC[C@@]1(O)CCN(C(=O)c2cccc3cc(C)oc23)C[C@H]1O
4.62

Fill in reported cytotoxicity at 10 µM for this entry: O=C(C1CC(=O)N(c2n[nH]c3cc(Br)ccc23)C1)N1CCCC1 (stereo unspecified)
-11.2
